Recorded values, source patent US20170029355A1.

PROTOCOL DESCRIPTION: In vitro photo-release and hydrolytic release of dicamba in an aqueous medium (Example 36)
Type: physicochemical
CONDITION CONTEXT: 0.01 mM (0.005 mM for diesters), amber (dark) bottle, Day 2
Lab note: compare Conversion to Dicamba, Dark, Day 2 against 60%. Equal or greater, write Criterion met. Smaller, write Criterion not met.

Sample answers from the record:
{"MOLECULE": "COc1c(Cl)ccc(Cl)c1C(=O)Oc1ccc(=O)n(CCC#N)n1 [Ester 34a]", "ASSIGNED CATEGORY": "Criterion not met"}
{"MOLECULE": "C=C(C(=O)OCC)C(OC(=O)c1c(Cl)ccc(Cl)c1OC)c1ccccc1[N+](=O)[O-] (centres unmarked) [Ester 31a]", "ASSIGNED CATEGORY": "Criterion not met"}
{"MOLECULE": "COc1c(Cl)ccc(Cl)c1C(=O)Oc1ccc(=O)n(CCC=O)n1 [Ester 33a]", "ASSIGNED CATEGORY": "Criterion not met"}
{"MOLECULE": "CCOC(=O)CCn1nc(OC(=O)c2c(Cl)ccc(Cl)c2OC)ccc1=O [Ester 35a]", "ASSIGNED CATEGORY": "Criterion met"}
{"MOLECULE": "COc1c(Cl)ccc(Cl)c1C(=O)Oc1ccc(OC(=O)c2c(Cl)ccc(Cl)c2OC)nn1 [Ester 17, Maleic Hydrazide Diester of Dicamba]", "ASSIGNED CATEGORY": "Criterion not met"}

Identify whether the reported Conversion to Dicamba, Dark, Day 2 of the following molecule is 60% or greater: COc1ccc(COC(=O)c2c(Cl)ccc(Cl)c2OC)cc1 [Ester 29a, 4-methoxybenzyl ester of dicamba]
Criterion met

Form field: Conversion to Dicamba, Dark, Day 2 at least 60%? Entry: COc1c(Cl)ccc(Cl)c1C(=O)Oc1ccccn1 [Ester 14, 2-Hydroxypyridine Ester of Dicamba]
Criterion met
